biological target: SIRT1 (Homo sapiens, UniProt Q96EB6); assay: TAMRA based mass spectrometry assay of SIRT1 activity; assay type: biochemical; conditions: TAMRA assay; concentration giving 150% activation of SIRT1
Reported metric: TAMRA EC1.5 (μM)

Worked cases, answers included:
* O=C(Nc1cccc(N2CCOCC2)n1)c1cnc2ccc(-c3cccc(OCC(O)CO)c3)nn12 (stereo not drawn) [Compound 372] | A (EC1.5<1 μM)
* N#Cc1ccccc1-c1ccc2ncc(NC(=O)c3ccncn3)n2n1 [Compound 330] | B (EC1.5 1-25 μM)
* COc1cncnc1NC(=O)c1c(C)nc2ccc(-c3ccccc3C(F)(F)F)nn12 [Compound 670] | A (EC1.5<1 μM)
* O=C(Nc1cnc2ccc(-c3ccccc3F)nn12)c1nccs1 [Compound 303] | B (EC1.5 1-25 μM)
* O=C(Nc1cccc(OCC(O)CO)n1)c1cnc2ccc(-c3ccccc3C(F)(F)F)nn12 (stereo not drawn) [Compound 212] | A (EC1.5<1 μM)
* Cc1cc(NC(=O)c2cnc3ccc(-c4ccccc4F)nn23)cc(C)n1 [Compound 257] | A (EC1.5<1 μM)

Data request: I would be grateful if you could share the reported TAMRA EC1.5 (μM) for Cc1cccc(-c2ccc3nc(C)c(C(=O)Nc4ccc(C)nn4)n3n2)c1 [Compound 692] .
Data returned: A (EC1.5<1 μM)

Data request: I would be grateful if you could share the reported TAMRA EC1.5 (μM) for O=C(Nc1cnc2ccc(-c3ccccc3F)nn12)c1cccc(N2CCOCC2)n1 [Compound 301] .
Data returned: A (EC1.5<1 μM)

----------
Molecular target: SIRT1 (Homo sapiens)
Sequence (Q96EB6 1-747): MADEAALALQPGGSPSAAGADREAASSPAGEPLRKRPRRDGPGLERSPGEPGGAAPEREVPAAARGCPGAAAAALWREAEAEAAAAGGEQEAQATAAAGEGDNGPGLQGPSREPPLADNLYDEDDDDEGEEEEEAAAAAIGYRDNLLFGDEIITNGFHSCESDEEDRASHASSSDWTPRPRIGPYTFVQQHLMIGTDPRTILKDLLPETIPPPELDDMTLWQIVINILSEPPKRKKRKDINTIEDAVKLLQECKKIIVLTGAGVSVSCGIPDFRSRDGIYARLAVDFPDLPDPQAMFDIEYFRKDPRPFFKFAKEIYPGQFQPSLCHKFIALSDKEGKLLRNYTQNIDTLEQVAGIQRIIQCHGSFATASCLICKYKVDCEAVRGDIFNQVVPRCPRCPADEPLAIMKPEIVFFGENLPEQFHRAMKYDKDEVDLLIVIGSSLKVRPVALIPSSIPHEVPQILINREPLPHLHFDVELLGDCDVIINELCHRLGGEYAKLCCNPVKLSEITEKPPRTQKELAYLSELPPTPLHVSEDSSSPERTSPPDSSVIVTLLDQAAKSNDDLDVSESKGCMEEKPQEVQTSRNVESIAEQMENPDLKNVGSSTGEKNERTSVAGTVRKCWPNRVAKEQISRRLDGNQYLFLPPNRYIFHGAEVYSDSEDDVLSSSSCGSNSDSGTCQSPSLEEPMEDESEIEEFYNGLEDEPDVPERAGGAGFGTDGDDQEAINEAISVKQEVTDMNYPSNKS
Assay: TAMRA based mass spectrometry assay of SIRT1 activity
Assay type: biochemical
Conditions: TAMRA assay; concentration giving 150% activation of SIRT1
Reported metric: TAMRA EC1.5 (μM)

Worked cases, answers included:
• CC(C)c1nccc(C(=O)Nc2cnn3ccc(-c4ccccc4OC(F)(F)F)nc23)n1 [Compound 728] = A (EC1.5<1 μM)
• Cc1nn2ccc(-c3ccccc3C(F)(F)F)nc2c1C(=O)Nc1nccs1 [Compound 709] = A (EC1.5<1 μM)
• COCCOc1nccc(NC(=O)c2cnc3ccc(-c4ccccc4C(F)(F)F)nn23)n1 [Compound 634] = A (EC1.5<1 μM)
• COCCOc1nccc(NC(=O)c2cnc3c(C)cc(-c4ccccc4C(F)(F)F)nn23)n1 [Compound 627] = A (EC1.5<1 μM)
• Cc1cc(-c2ccccc2C(F)(F)F)nn2c(C(=O)Nc3cnccn3)cnc12 [Compound 208] = A (EC1.5<1 μM)

Data request: I would be grateful if you could share the reported TAMRA EC1.5 (μM) for CCOc1ccc(NC(=O)c2c(C)nc3ccc(-c4ccccc4C)nn23)nn1 [Compound 721] .
Data returned: B (EC1.5 1-25 μM)

Data request: I would be grateful if you could share the reported TAMRA EC1.5 (μM) for Cc1nc(C(=O)Nc2c(C)nc3ccc(-c4ccccc4Cl)nn23)c(C)s1 [Compound 352] .
Data returned: B (EC1.5 1-25 μM)
